Source: patent US20240239886A1

- assayed.system: T1, recombinant protein consisting of the extracellular domain of human TREM2 fused to the His tag (human, UniProt Q9NZC2 19-174)
- T1 construct: also called His tagged hTREM2; His-TREM2
- T1 sequence: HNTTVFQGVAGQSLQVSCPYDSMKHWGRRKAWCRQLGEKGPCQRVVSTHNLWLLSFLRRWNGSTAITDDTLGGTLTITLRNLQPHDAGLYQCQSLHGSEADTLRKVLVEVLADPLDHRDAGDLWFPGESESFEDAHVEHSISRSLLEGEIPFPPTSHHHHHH
- measurement.protocol: direct ELISA, coated His-TREM2 0.5 ug/mL, Ab stock 1 mg/mL
value.type: OD at dilution 27000 (OD)
Entry rule: numbers only, all in OD.

1) 54H2C1 (antibody, V domains shown, Biotin conjugated in sup ELISA, cell-based ELISA and flow cytometry) VH: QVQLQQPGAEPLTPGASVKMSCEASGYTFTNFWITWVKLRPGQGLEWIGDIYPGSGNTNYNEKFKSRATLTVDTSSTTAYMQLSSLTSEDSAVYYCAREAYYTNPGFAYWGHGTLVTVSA VL: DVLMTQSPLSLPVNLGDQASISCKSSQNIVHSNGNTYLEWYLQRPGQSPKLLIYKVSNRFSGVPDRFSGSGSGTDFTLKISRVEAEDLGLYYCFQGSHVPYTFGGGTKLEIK    0.967

(Q) Consider the binder 60H4G2 (antibody, V domains shown, Biotin conjugated in sup ELISA, cell-based ELISA and flow cytometry) VH: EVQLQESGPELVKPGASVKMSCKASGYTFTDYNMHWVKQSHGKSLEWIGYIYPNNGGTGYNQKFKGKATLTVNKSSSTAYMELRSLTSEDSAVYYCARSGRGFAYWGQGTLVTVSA VL: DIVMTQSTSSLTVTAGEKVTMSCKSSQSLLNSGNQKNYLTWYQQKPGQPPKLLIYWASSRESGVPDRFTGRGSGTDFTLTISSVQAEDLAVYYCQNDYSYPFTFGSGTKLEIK and give its measured OD at dilution 27000.
(A) 1.31
